For each entry below, report its MIC90 value.
- Test system: Mycobacterium tuberculosis
- run.description: AntiMycobacterium tuberculosis activity Non-Replicating form: Average MIC90 (uM)
- Format: functional
Field: numeric (µM). Do not append units.

Query MIC90 for `N#Cc1ccc(-c2ccc(OCC(N)=O)cc2)cc1` 13.7

Respond only with MIC90 recorded for `CC(C)(C)c1cnc(NC(=O)c2ccccc2O)s1` 21

Give MIC90 for the following compound: CC(=O)NCC1CN(c2ccc(-c3ccc(CNCc4cn[nH]n4)cc3)c(F)c2)C(=O)O1 (stereo unspecified) 0.31

Provide one value: measured MIC90 of `O=C(NCCc1c[nH]c2ccccc12)c1cc2ccccc2oc1=O` 4.78

Return MIC90 (reported value) for this compound: `O=C(C1CCN(c2cc(-n3cccc3)ncn2)CC1)N1CCc2ccccc2C1` 7.62

Provide measured MIC90 value, entry: `O=C(Nc1nnc(-c2ccc(Cl)cc2)o1)c1cccc(C(F)(F)F)c1` 2.71

Note down MIC90 recorded for `CCCn1nnc(NC(=O)COc2ccc(C3CCCCC3)cc2)n1` 98.5

For the compound Cc1ccc(NC(=O)CC2COc3ccccc3O2)cc1Cl (stereo unspecified) , give its reported MIC90. 56.9

For the compound `Cc1cccc(Cn2ccc(NC(=O)c3ccc4c(c3)OCO4)n2)c1` , give its reported MIC90. 10.4

Check the records and state MIC90 for NCC(c1cccs1)S(=O)(=O)c1ccccc1 (stereo unspecified) 19.6

Data provenance: ChEMBL document CHEMBL3832761
